All values here come from paper PMC9250534.

molecular target: thrombin (Homo sapiens, UniProt P00734); construct: consists of two polypeptide chains of 36 (light chain) and 259 amino acid; assay: Thrombin inhibition screen of crude macrocycle reactions (residual thrombin activity, fluorogenic substrate Z-Gly-Gly-Arg-AMC); type: biochemical; details: 10 µM macrocycle concentration; macrocycles containing acid 14; crude reaction; original screen
Consider the following compounds and their measured % thrombin activity, Original screen readings.

| compound | target or test system | unit name | % thrombin activity, Original screen |
| --- | --- | --- | --- |
| O=C1CCSSCCNC(=O)[C@H](CNC(=O)c2ccc(Cl)s2)NC(=O)[C@H](Cc2ccccc2)NC(=O)CCN1 [X B2 F D3] | thrombin (Homo sapiens, UniProt P00734) | % | 34.0 |
| CC1NC(=O)CCSSCCNC(=O)c2cccc(c2)CNC(=O)C(CCCCNC(=O)c2ccc(Cl)s2)NC1=O (stereo not drawn) [X a D1 B5] | thrombin (Homo sapiens, UniProt P00734) | % | 102.5 |
| O=C1CCSSCCNC(=O)[C@H](CCCNC(=O)c2ccc(Cl)s2)NC(=O)[C@H](Cc2ccccc2)NC(=O)c2cccc(c2)CN1 [X B5 F D2] | thrombin (Homo sapiens, UniProt P00734) | % | 81.9 |

====

molecular target: MDM2 (Homo sapiens, UniProt Q00987); experiment: MDM2 binding screen: displacement of fluorescent p53 peptide probe FP53 (fluorescence polarization); settings: Acid 25; replicate; crude macrocycle reactions
Sequence (Q00987 whole entry): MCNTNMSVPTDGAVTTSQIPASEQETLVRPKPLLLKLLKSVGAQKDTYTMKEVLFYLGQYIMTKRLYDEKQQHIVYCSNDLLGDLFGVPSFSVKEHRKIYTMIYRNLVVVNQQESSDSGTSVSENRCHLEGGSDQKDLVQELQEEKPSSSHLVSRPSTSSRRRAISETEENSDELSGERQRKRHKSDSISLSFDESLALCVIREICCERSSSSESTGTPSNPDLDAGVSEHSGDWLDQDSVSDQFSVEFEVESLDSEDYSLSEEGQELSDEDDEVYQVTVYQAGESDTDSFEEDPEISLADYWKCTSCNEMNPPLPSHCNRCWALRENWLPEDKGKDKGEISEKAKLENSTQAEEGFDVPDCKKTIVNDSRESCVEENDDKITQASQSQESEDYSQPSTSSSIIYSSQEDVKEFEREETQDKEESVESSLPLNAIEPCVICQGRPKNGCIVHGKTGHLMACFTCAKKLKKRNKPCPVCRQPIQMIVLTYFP
measured metric: fraction fluorescent probe displaced, Replicate

| compound | assay value |
| --- | --- |
| O=C1CCNC(=O)C2CN(C(=O)c3ccc(Cl)cc3)CCN2C(=O)C(Cc2ccccc2)NC(=O)CCSSCCN1 (stereo not shown) | 0.10 |
| O=C1NCCSSCCC(=O)N2CCCC2C(=O)N2CCN(C(=O)c3ccc(Cl)cc3)CC2C(=O)NC1Cc1c[nH]c2ccccc12 (stereo not shown) | 0.10 |
| O=C1CCSSCCNC(=O)[C@H]2CCCN(C2)C(=O)[C@H](CNC(=O)c2ccc(Cl)cc2)NC(=O)[C@H](Cc2ccccc2)N1 | 0.10 |
| O=C1CCSSCCNC(=O)[C@H](Cc2ccccc2)NC(=O)[C@H](CNC(=O)c2ccc(Cl)cc2)NC(=O)c2cccc(c2)CN1 | 0.10 |

====

molecular target: UniProt Q00987; experiment: MDM2 binding screen of Libraries 3 and 4: displacement of fluorescent probe F-M8 at 750 nM macrocycle; settings: Panel b, Library 3: 63 scaffolds combinatorially acylated with 15 carboxylic acids at 30 picomole scale; displacement of fluorescent peptide probe; macrocycle 750 nM

| compound | target or test system | fraction of fluorescent probe displaced |
| --- | --- | --- |
| CN1C(=O)[C@H](CNC(=O)c2ccc(Cl)cc2)NC(=O)[C@@H]2CN(CCO2)C(=O)CCSSCCNC(=O)[C@@H]1Cc1c[nH]c2ccccc12 | UniProt Q00987 | -0.00533 |
| CN1C(=O)CN(CCNC(=O)c2cccc(Oc3ccccc3)c2)C(=O)C2(CC2)CNC(=O)CCSSCCNC(=O)[C@@H]1Cc1c[nH]c2ccccc12 | UniProt Q00987 | 0.00133 |
| CC(Oc1cccc(Cl)c1)C(=O)NC[C@H]1NC(=O)[C@H]2CCCN(C2)C(=O)CCSSCCNC(=O)[C@H](Cc2c[nH]c3cc(Cl)ccc23)NC1=O (stereo partly shown) | UniProt Q00987 | -0.00533 |
| CN1C(=O)[C@@H](CNC(=O)CCS(=O)(=O)c2ccccc2)NC(=O)[C@H]2CCCN(C2)C(=O)CCSSCCNC(=O)[C@@H]1Cc1c[nH]c2ccccc12 | UniProt Q00987 | 0.008 |

====

Target: MDM2 (Homo sapiens)
Test: MDM2 binding screen of Libraries 3 and 4: displacement of fluorescent probe F-M8 at 750 nM macrocycle
Details: Panel b, Library 3: 63 scaffolds combinatorially acylated with 15 carboxylic acids at 30 picomole scale; displacement of fluorescent peptide probe; macrocycle 750 nM
Method: The cyclic peptide scaffolds required for Libraries 3 and 4 were synthesized as described for those used in Library 2. Due to the presence of many N-methylated amino acids which are more difficult to couple, 200 mM HOAt was applied together with HATU. The scaffolds were diluted to 2 mM in DMSO, and 15 nL were transferred using acoustic dispensing, followed by 15 nL DMSO containing carboxylic acids (40 mM, 20 equiv.), HBTU (40 mM) and DABCO (40 mM). […]
Consider the following molecules and their measured fraction of fluorescent probe displaced readings.
measured metric: fraction of fluorescent probe displaced

| molecule | target or test system | measured metric | assay value |
| --- | --- | --- | --- |
| Cn1cc(C[C@@H]2NC(=O)CN(CCNC(=O)/C=C/c3ccc(Cl)cc3)C(=O)[C@@H]3CN(CCO3)C(=O)CCSSCCNC2=O)c2ccccc21 | MDM2 (Homo sapiens) | fraction of fluorescent probe displaced | 0.021 |
| CN1C(=O)C(CNC(=O)C2CC2c2ccccc2)NC(=O)C2CN(CCO2)C(=O)CCSSCCNC(=O)C1Cc1c[nH]c2ccccc12 (stereo not drawn) | MDM2 (Homo sapiens) | fraction of fluorescent probe displaced | 0.018 |
| Cn1cc(C[C@@H]2NC(=O)[C@@H](CNC(=O)/C=C/c3ccc4ccccc4c3)NC(=O)C3(CC3)CNC(=O)CCSSCCNC2=O)c2ccccc21 | MDM2 (Homo sapiens) | fraction of fluorescent probe displaced | 0.00133 |

====

target: thrombin (Homo sapiens, UniProt P00734); construct: consists of two polypeptide chains of 36 (light chain) and 259 amino acid; assay: Thrombin inhibition screen of crude macrocycle reactions (residual thrombin activity, fluorogenic substrate Z-Gly-Gly-Arg-AMC); type: biochemical; conditions: 10 µM macrocycle concentration; macrocycles containing acid 14; crude reaction; replicate reaction and screen
Numbered stars: 1 amine (or outer) side, 2 acyl side, 3 side chain; on linkers, the order of the positions; unused ones are H or OH. Bridge positions count the residues as written; N and C are the ends. Square brackets hold non-standard residues; d marks the D form. Peptide text beside a SMILES is read from it. * marks the point of attachment. 2Thenoyl(5-Cl) = O=C(c1ccc(Cl)s1)*; Cysteamide = C(CS[*:3])N[*:1]; Orn = NCCC[CH](N)C(=O)O; Dap = NC[C@H](N)C(=O)O; Mpa = O=C(O)CCS
measured metric: % thrombin activity, Repeat screen (%)

| molecule | assay value |
| --- | --- |
| O=C(NC[C@@H]1NC(=O)[C@@H]2CCCN2C(=O)CCSSCCNC(=O)[C@@H](Cc2ccccc2)NC1=O)c1ccc(Cl)s1 [X B1 D3 f] ([Mpa]P[Dap](2Thenoyl(5-Cl))[dF]-Cysteamide; disulfide 1-C) | 88.2 |
| NC(=O)CCC1NC(=O)C2CCCN2C(=O)CCSSCCNC(=O)C(CCCNC(=O)c2ccc(Cl)s2)NC1=O (stereo not drawn) [X B1 Q D2] ([Mpa]PQ[Orn](2Thenoyl(5-Cl))-Cysteamide; disulfide 1-C; configuration not given here) | 89.5 |
| O=C1CCSSCCNC(=O)[C@H](Cc2c[nH]c3ccccc23)NC(=O)[C@H](CCCNC(=O)c2ccc(Cl)s2)NC(=O)C2(CC2)CN1 [X B6 D2 W] | 88.9 |
| O=C1CCSSCCNC(=O)[C@@H](CNC(=O)c2ccc(Cl)s2)NC(=O)[C@@H](Cc2c[nH]c3ccccc23)NC(=O)C2(CC2)CN1 | 106.2 |
| O=C1CCNC(=O)C2(CCN(C(=O)c3ccc(Cl)s3)CC2)NC(=O)[C@@H](Cc2ccccc2)NC(=O)CCSSCCN1 | 95.6 |
| O=C1CCSSCCNC(=O)c2cccc(c2)CNC(=O)[C@@H](CNC(=O)c2ccc(Cl)s2)NC(=O)[C@@H](Cc2c[nH]c3ccccc23)N1 | 100.3 |
